Numbers sourced from the supplement of paper PMC6757056.

Catalogue of normalized RNA/DNA level with ligand (log10) readings, one per entry.
B1: library; a variant is named by its letters at N, in order (parent)
chain: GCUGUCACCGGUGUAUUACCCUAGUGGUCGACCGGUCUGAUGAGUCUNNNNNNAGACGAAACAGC

# Variants of: B1
# PROTOCOL_SUMMARY: normalized RNA/DNA level with ligand (relative to sTRSVctl = 100) (log10 (% of sTRSVctl)); ligand: hypoxanthine (xanthine aptamer); higher = less ribozyme self-cleavage, higher mRNA level
# CONDITION_DESCRIPTION: ligand concentration (+) RNA-Seq: 5 mM, HEK293T, reporter: mCherry (pCS4076), ligand present: yes
METRIC: normalized RNA/DNA level with ligand (log10)

In [3]: df
Out[3]:
   mutation_name  reported
0         UGGGUU      1.99
1         AUUCGA      1.91
2         CUAGCA      1.93
3         AUGCAG      1.76
